- Target Of Assay: pooled human IgG
Value Kind: Enzyme Activity Endpoint Assay: IgG (ng/µL)

>  <Protein>
PRT-22 (protein) MANQEIRYSEVTPYHVTSVWTKGVTPPANFTQGEDVFHAPYVANQGWYDITKTFNGKDDLLCGAATAGNMLHWWFDQNKDQIERYLKEHPEKQKINFNGEQMFDVKEAIDTKNSQLDSKLFEYFKEKAFPYLSTKHLGVFPDHVIDMFINGYRLSLTNHGPTPVKEGSKDPRGGIFDAVFTRGDQSKLLTSRHDFKEKNLKEISDLIKKELTEGKALGLSHTYANVRINHVINLWGADFDSNGNLKAIYVTDSDSNASIGMKKYFVGVNSAGKVAISAKEIKEDNIGAQVLGLFTLSTGQDIWNQTN

>  <Measured Number>
19

$$$$
